Tested on: HOP-92
Experiment: NCI tumour cell line growth inhibition, 48 h
Activity calls are given as the source filed them. Cut-off read from the data, not from the text of the source: active = GI50 up to about 1.1 µM and inactive = higher.
Bench note: report the call from Y = active, N = inactive

Before answering, review these 5 worked examples.
Compound	Assigned Class
C(=N\N=C1NCCCN1)/c1ccc2ccccc2c1	N
CCOC(=O)C1(C(=O)OCC)C[C@H](C)[C@](C)(O)C1	N
O=[N+]([O-])c1ccc(-c2nc3cc([N+](=O)[O-])ccc3[nH]2)cc1	N
C=C(Br)C(C)(Br)CCC(Br)C(C)(C)Cl (stereo not drawn)	N
CN1CC[C@]2(c3cccc(O)c3)CC(=O)/C(=C/c3ccc(Cl)c(Cl)c3)[C@@H]1C2	N

Identify the outcome logged in this assay for the compound shown: O=C1C2=Cc3ccccc3OC2(O)Oc2cc(O)cc(O)c21 (stereo not drawn)
N

Identify the outcome logged in this assay for the compound shown: CC(NC(=O)C(C)NC(=O)C(N)CCP(C)(=O)O)C(=O)O (stereo not drawn)
N

Identify the outcome logged in this assay for the compound shown: `O=c1cc(-c2ccncc2)[nH]c2cc3c(cc12)OCO3`
N
